The measured values listed here are drawn from patent US20070043000A1.

# System: TNF-alpha production by PBMC
# measurement.protocol: TNF-alpha assay, LPS-stimulated PBMC, sandwich ELISA
# Type: cell-based, human
# conditions: Table 7; same conditions as example 26; read-out: TNFα IC50
quantity.kind: pIC50
pIC50 is defined as minus the log10 of a concentration measured in mol/L.

Which measured pIC50 value corresponds to `CCOC(=O)CCCn1c(=O)c2nc(-c3ccc(OC)cc3)c(Cl)nc2n(C)c1=O` ?
6.22

Which measured pIC50 value corresponds to `Cn1c(=O)n(CCCC(=O)O)c(=O)c2nc(-c3ccccc3)c(Cl)nc21` ?
5.21

Which measured pIC50 value corresponds to `COc1ccc(-c2nc3c(=O)[nH]c(=O)n(C)c3nc2Br)cc1` ?
5.34

Which measured pIC50 value corresponds to `COc1ccc(-c2nc3c(=O)[nH]c(=O)n(C)c3nc2Cl)cc1` ?
6.10

Which measured pIC50 value corresponds to `CCOC(=O)CCCn1c(=O)n(C)c(=O)c2nc(-c3ccccc3)c(Cl)nc21` ?
6.30
